- Test system: Puccinia recondita f. sp. tritici
- ASSAY REMARKS: Test B: wheat leaf rust control on wheat seedlings
- Format: in vivo
- EXPERIMENTAL CONDITIONS: Puccinia recondita, 250 ppm; wheat seedlings; 100 = 100% disease control, 0 = no control; read-out: Test B disease control rating
READOUT TYPE: pest or weed control at 250 ppm (%)

COc1ccnc(C(=O)N[C@@H](C)C(=O)OC(C)C2CCCCC2)c1O (mixture of isomers)	100
COc1ccnc(C(=O)N[C@@H](C)C(=O)OC(C)C2CCCCC2)c1OC(C)=O (mixture of isomers)	99
CCC(OC(=O)[C@H](C)NC(=O)c1nccc(OC)c1OC(C)=O)C1CCCCC1 (mixture of isomers)	100
COc1ccnc(C(=O)N[C@@H](C)C(=O)O[C@@H](C)c2ccc(C3CCCCC3)cc2)c1OC(C)=O	100
COc1ccnc(C(=O)N[C@@H](C)C(=O)OC(C)C2CCC(c3ccccc3)CC2)c1OC(C)=O (mixture of isomers)	100
COc1ccnc(C(=O)N[C@@H](C)C(=O)OC(C)c2ccc(C3CC3)cc2)c1O (mixture of isomers)	100
CCC(OC(=O)[C@H](C)NC(=O)c1nccc(OC)c1O)C1CCCCC1 (mixture of isomers)	100
COc1ccnc(C(=O)N[C@@H](C)C(=O)OC(C)c2ccc(C3CCCCC3)cc2)c1OC(C)=O (mixture of isomers)	100
COc1ccnc(C(=O)NC(C)C(=O)OC(C)c2ccncc2)c1O (racemic)	0
CC(NC(=O)c1cccc(N)c1O)C(=O)OC(C)c1ccccc1Cc1ccccc1 (racemic)	91
COc1cccc(C(=O)NC(C)C(=O)OC(C)c2ccccc2Cc2ccccc2)c1O (stereo not drawn)	0
COc1ccnc(C(=O)N[C@@H](C)C(=O)OC(C)c2ccc(C3CCCCC3)cc2)c1O (mixture of isomers)	99
CCC(OC(=O)[C@H](C)NC(=O)c1nccc(OC)c1OC(C)=O)c1ccc(C2CCCCC2)cc1 (mixture of isomers)	99
COc1ccnc(C(=O)NC(C)C(=O)OC(C)c2ccc3ccccc3c2)c1O (racemic)	100
COc1ccnc(C(=O)N[C@H](C(=O)OC(C)c2ccc(C3CCCCC3)cc2)C(C)C)c1OC(C)=O (mixture of isomers)	100

Reference source: patent US20230131966A1
